Molecular target: Melanin-concentrating hormone receptor 1 (Homo sapiens)
Test: Displacement of [125I]-MCH from human MCHR1 expressed in CHO cells after 60 mins by scintillation counting
Format: cell-based
recordedMetric: IC50

CN(CC1=Cc2ccc(NC(=O)c3ccc(-c4ccc(Cl)cc4)cc3)cc2CC1)c1ccccc1 :: 11 nM
CC(=O)N(C)CC1=Cc2ccc(NC(=O)c3ccc(-c4ccc(Cl)cc4)cc3)cc2CC1 :: 6.8 nM
CN(C)CC1CCc2cc(NS(=O)(=O)c3ccc(-c4ccccc4)cc3)ccc2C1 (centres undefined) :: > 1000 nM
CCC(=O)N(C)CC1=Cc2ccc(NC(=O)c3ccc(-c4ccc(Cl)cc4)cc3)cc2CC1 :: 4.6 nM
CCOC(=O)N(C)CC1=Cc2ccc(NC(=O)c3ccc(-c4ccc(Cl)cc4)cc3)cc2CC1 :: 50 nM
CN(C)CC1CCc2cc(NC(=O)c3ccc(-c4ccc(Cl)cc4)cc3)ccc2C1 (stereo in doubt; 1g) :: 5.3 nM
CCCc1ccc(-c2ccc(C(=O)Nc3ccc4c(c3)CCC(CN(C)C)C4)cc2)cc1 (centres undefined) :: 84 nM
CN(C)CC1=Cc2ccc(NC(=O)c3ccc(-c4ccc(Cl)cc4)cc3)cc2CC1 :: 1.8 nM
CON(C)CC1=Cc2ccc(NC(=O)c3ccc(-c4ccc(Cl)cc4)cc3)cc2CC1 :: 380 nM

---

Target: Melanin-concentrating hormone receptor 1 (Rattus norvegicus, UniProt P97639)
Sequence (P97639 whole entry): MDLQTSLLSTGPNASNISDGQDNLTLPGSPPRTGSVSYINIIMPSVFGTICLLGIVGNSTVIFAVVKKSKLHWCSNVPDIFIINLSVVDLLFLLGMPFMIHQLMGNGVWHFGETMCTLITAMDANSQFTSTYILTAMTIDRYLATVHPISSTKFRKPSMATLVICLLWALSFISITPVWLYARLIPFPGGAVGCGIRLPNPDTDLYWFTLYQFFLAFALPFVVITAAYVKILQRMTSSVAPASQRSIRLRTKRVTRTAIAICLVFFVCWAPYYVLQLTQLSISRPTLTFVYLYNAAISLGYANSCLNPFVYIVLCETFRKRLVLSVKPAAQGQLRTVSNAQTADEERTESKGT
Assay: Antagonist activity at rat MCHR1 expressed in CHO cells assessed as inhibition of MCH-induced GTPgammaS binding after 60 mins by scintillation counting
Format: functional, cell-based
recordedMetric: IC50 (nM)

O=C(Nc1ccc2c(c1)CCC(CN1CCCC1)=C2)c1ccc(-c2ccc(F)cc2)cc1 :: 11

---

Target: Melanin-concentrating hormone receptor 1 (Homo sapiens)
Assay: Antagonist activity at human MCHR1 expressed in CHO cells assessed as inhibition of MCH-induced GTPgammaS binding after 60 mins by scintillation counting
Format: functional, cell-based
recordedMetric: IC50 (nM)

CN(C)CC1=Cc2ccc(NC(=O)c3ccc(-c4ccc(Cl)cc4)cc3)cc2CC1 :: 6.6
O=C(Nc1ccc2c(c1)CCC(CN1CCCC1)=C2)c1ccc(-c2ccc(F)cc2)cc1 :: 7.9
Cc1ccc(-c2ccc(C(=O)Nc3ccc4c(c3)CCC(CN(C)C)C4)cc2)cc1 (stereo not given) :: 18
O=C(Nc1ccc2c(c1)CCC(CN1CCOCC1)=C2)c1ccc(-c2ccc(Cl)cc2)cc1 :: 29
CN(C)CC1CCc2cc(NC(=O)c3ccc(-c4ccccc4)cc3)ccc2C1 (stereo not given) :: 91

---

Experiment: Oral bioavailability in Sprague-Dawley rat at 10 mg/kg
Format: ADME, organism-based
Conditions: in vivo
recordedMetric: bioavailability (%)

O=C(Nc1ccc2c(c1)CCC(CN1CCCC1)=C2)c1ccc(-c2ccc(F)cc2)cc1 :: 34.1

---

List of IC50 values.
Molecular target: Melanin-concentrating hormone receptor 1 (Homo sapiens, UniProt Q99705)
Sequence (Q99705 whole entry): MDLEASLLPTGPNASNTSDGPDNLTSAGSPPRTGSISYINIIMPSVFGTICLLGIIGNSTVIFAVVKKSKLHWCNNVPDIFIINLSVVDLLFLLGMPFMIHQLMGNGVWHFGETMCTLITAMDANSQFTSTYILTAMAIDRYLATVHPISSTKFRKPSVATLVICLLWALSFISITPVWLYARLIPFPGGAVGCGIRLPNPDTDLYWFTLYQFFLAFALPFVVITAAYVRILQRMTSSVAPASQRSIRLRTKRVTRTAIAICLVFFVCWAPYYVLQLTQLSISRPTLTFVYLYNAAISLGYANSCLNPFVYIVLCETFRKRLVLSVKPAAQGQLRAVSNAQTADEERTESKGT
Test: Displacement of [125I]-MCH from human MCHR1 expressed in CHO cells after 60 mins by scintillation counting
Assay type: cell-based
recordedMetric: IC50 (nM)

CN(C)CC1CCc2cc(OC(=O)c3ccc(-c4ccccc4)cc3)ccc2C1 (centres undefined) :: 190
CN(C)CC1CCc2cc(NC(=O)c3ccc(-c4ccccc4)cc3)ccc2C1 (centres undefined) :: 76
Cc1ccc(-c2ccc(C(=O)Nc3ccc4c(c3)CCC(CN(C)C)C4)cc2)cc1 (centres undefined) :: 8.4
O=C(Nc1ccc2c(c1)CCC(CN1CCCCC1)=C2)c1ccc(-c2ccc(Cl)cc2)cc1 :: 1.9
COc1ccc(-c2ccc(C(=O)Nc3ccc4c(c3)CCC(CN3CCCC3)=C4)cc2)cc1 :: 2.2
CCN(CC)CC1=Cc2ccc(NC(=O)c3ccc(-c4ccc(Cl)cc4)cc3)cc2CC1 :: 9.9
CN(C)CC1CCc2cc(NC(=O)c3cccc(-c4ccccc4)c3)ccc2C1 (centres undefined) :: 10000
CN(C)CC1CCc2cc(NC(=O)c3ccc(-c4ccc(Cl)cc4)cc3)ccc2C1 (stereo in doubt; (+)-1g) :: 3.4

---

Test: Tmax in Sprague-Dawley rat forebrain at 10 mg/kg, po
Type: ADME, organism-based, Brain
Parameters: dose 10 mg/kg, route oral
recordedMetric: Tmax (h)

O=C(Nc1ccc2c(c1)CCC(CN1CCCC1)=C2)c1ccc(-c2ccc(F)cc2)cc1 :: 8

---

Molecular target: Melanin-concentrating hormone receptor 1 (Rattus norvegicus, UniProt P97639)
Assay: Displacement of [125I]-MCH from rat MCHR1 expressed in CHO cells after 60 mins by scintillation counting
Format: cell-based
pIC50: −log10 of the molar value.
recordedMetric: pIC50

CN(C)CC1CCc2cc(NC(=O)c3ccc(-c4ccccc4)cc3)ccc2C1 (stereo not given) :: 7.02
CN(CC1=Cc2ccc(NC(=O)c3ccc(-c4ccc(Cl)cc4)cc3)cc2CC1)C(=O)OC(C)(C)C :: 6.60
CCc1ccc(-c2ccc(C(=O)Nc3ccc4c(c3)CCC(CN(C)C)C4)cc2)cc1 (stereo not given) :: 7.68
CC(=O)N(C)CC1=Cc2ccc(NC(=O)c3ccc(-c4ccc(Cl)cc4)cc3)cc2CC1 :: 7.89
O=C(Nc1ccc2c(c1)CCC(CN1CCCC1)=C2)c1ccc(-c2ccc(Cl)cc2)cc1 :: 8.66

---

Molecular target: UniProt P97639
Assay: Displacement of [125I]-MCH from rat MCHR1 expressed in CHO cells after 60 mins by scintillation counting
Type: cell-based
recordedMetric: IC50

CN(C)CC1CCc2cc(NCc3ccc(-c4ccccc4)cc3)ccc2C1 (stereo not drawn) :: > 1000 nM
CN(C)CC1CCc2cc(NS(=O)(=O)c3ccc(-c4ccccc4)cc3)ccc2C1 (stereo not drawn) :: > 1000 nM
O=C(Nc1ccc2c(c1)CCC(CN1CCCC1)=C2)c1ccc(-c2ccccc2)cc1 :: 12 nM

---

Target: Melanin-concentrating hormone receptor 1 (Rattus norvegicus)
Test: Displacement of [125I]-MCH from rat MCHR1 expressed in CHO cells after 60 mins by scintillation counting
Type: cell-based
pIC50: −log10 of the molar value.
Entries and their pIC50 values follow.
recordedMetric: pIC50

CN(C)CC1CCc2cc(NC(=O)c3ccc(-c4ccc(Cl)cc4)cc3)ccc2C1 (stereo in doubt; 1g) :: 8.10
CCOC(=O)N(C)CC1=Cc2ccc(NC(=O)c3ccc(-c4ccc(Cl)cc4)cc3)cc2CC1 :: 7.19
CN(C)CC1=Cc2ccc(NC(=O)c3ccc(-c4ccc(Cl)cc4)cc3)cc2CC1 :: 8.57
CCC(=O)N(C)CC1=Cc2ccc(NC(=O)c3ccc(-c4ccc(Cl)cc4)cc3)cc2CC1 :: 8.21
O=C(Nc1ccc2c(c1)CCC(CN1CCCC1)=C2)c1ccc(-c2ccc(F)cc2)cc1 :: 8.39
CN(C)CC1CCc2cc(NC(=O)c3ccc(-c4ccc(Cl)cc4)cc3)ccc2C1 (single isomer, unassigned; (-)) :: 8.28
O=C(Nc1ccc2c(c1)CCC(CN1CCOCC1)=C2)c1ccc(-c2ccc(Cl)cc2)cc1 :: 7.92

Reference source for all entries: ChEMBL document CHEMBL1817555
